Measured values drawn from ChEMBL document CHEMBL1135072 for this set.

- Target under test: Integrin alpha-4/beta-1 (Homo sapiens, UniProt P05556+P13612)
- Sequence (P05556 whole entry): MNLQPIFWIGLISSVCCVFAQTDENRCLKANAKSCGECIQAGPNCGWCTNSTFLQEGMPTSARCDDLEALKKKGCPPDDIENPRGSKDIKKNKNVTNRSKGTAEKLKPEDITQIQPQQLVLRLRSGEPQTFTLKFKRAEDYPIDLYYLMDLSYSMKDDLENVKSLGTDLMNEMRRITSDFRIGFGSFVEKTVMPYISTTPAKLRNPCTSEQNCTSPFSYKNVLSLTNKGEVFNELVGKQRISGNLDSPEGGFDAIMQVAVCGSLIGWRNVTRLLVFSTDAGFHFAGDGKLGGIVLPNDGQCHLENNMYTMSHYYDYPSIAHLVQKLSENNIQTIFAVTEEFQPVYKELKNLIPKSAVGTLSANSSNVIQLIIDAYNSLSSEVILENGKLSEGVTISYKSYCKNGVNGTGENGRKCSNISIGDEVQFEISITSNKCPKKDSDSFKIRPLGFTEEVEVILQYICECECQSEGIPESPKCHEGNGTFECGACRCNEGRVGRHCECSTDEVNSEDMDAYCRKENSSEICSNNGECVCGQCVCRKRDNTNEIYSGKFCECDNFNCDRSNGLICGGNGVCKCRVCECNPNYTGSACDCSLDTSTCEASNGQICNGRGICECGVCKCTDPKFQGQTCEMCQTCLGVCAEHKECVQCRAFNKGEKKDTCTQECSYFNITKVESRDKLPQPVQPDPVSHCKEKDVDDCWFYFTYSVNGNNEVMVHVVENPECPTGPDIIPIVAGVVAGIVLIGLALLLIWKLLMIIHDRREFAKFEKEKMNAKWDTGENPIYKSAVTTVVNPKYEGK
- Sequence (P13612 whole entry): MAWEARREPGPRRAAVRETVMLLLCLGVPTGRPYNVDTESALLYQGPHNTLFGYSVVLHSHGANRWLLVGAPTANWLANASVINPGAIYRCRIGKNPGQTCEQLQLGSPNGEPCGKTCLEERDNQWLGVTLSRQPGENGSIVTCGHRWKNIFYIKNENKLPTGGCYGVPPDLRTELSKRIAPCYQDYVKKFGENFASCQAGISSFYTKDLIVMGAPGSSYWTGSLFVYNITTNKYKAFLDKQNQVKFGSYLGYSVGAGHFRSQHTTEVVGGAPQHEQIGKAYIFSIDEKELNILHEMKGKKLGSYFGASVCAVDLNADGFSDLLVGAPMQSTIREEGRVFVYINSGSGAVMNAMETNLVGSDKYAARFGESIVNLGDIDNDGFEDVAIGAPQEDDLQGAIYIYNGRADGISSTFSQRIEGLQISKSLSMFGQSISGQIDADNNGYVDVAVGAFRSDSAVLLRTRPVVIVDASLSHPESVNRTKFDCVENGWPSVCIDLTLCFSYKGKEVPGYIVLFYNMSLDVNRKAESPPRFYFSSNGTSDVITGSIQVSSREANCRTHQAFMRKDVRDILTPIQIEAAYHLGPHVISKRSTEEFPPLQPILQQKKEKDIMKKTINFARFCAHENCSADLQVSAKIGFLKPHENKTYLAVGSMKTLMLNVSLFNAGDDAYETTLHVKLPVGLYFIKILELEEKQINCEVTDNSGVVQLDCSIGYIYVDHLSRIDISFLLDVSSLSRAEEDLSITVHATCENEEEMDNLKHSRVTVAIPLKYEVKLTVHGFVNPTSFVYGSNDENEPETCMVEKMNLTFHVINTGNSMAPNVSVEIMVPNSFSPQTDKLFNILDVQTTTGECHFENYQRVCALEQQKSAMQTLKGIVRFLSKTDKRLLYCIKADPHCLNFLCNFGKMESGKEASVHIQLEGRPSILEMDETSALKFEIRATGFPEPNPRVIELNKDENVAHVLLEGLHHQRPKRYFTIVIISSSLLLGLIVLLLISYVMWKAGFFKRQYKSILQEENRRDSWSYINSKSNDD
- Assay remarks: Inhibitory activity against very late antigen-4 (VLA-4) using VCAM-Ig ligand.
Property label: IC50 (nM)

O=C(O)[C@H](Cc1cccs1)NC(=O)[C@@H]1CCCN1S(=O)(=O)c1cc(Cl)cc(Cl)c1 :: 0.92

[A] C[C@@]1(C(=O)N[C@@H](Cc2ccc(F)cc2)C(=O)O)CCCN1S(=O)(=O)c1cc(Cl)cc(Cl)c1
[B] C[C@]1(C(=O)N[C@H](Cc2ccccc2)C(=O)O)CCCN1S(=O)(=O)c1cc(Cl)cc(Cl)c1
Select one: A or B . Criterion: greater recorded IC50. Give the label of your selection.
B
